systemUnderTest: T1, Recombinant human OX40-His protein (human, UniProt P43489 29-214, limits assumed)
T1 construct: Recombinant antigen protein; also called recombinant human OX-40 protein; human OX-40 protein; not shown: His tag
T1 sequence (looked up): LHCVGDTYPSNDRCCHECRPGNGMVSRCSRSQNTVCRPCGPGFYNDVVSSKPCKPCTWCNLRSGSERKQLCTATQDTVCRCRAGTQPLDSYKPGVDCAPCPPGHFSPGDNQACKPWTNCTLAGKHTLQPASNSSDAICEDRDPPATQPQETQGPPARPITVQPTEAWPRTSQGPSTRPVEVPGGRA
experimentalProtocol: SPR (Biacore 8K), OX40-HIS coupled to chip, antibody as analyte, 1:1 binding model
quantityKind: koff (s⁻¹)
Give the quantity in s⁻¹, number only.

// solved cases for koff follow
Exam item: # query: koff of entry Chimeric antibody (anti-human OX40, recombinant, human IgG1/kappa constant regions) (antibody, V domains shown) VH: QIQLVQSGPELKKPGETVKISCKASGYTFTDYSMHWVKQAPGKGLKWMGWISTETGEPTYADDFKGRFAFSLETSASTAYLQIKNLKNEDTASYFCARVRPWYLAVWGAGTTVTVSS VL: DIQMTQTTSSLSASLGDRVTISCRASQDISNYLNWYQQKPDGTVKLLIYYTSRLYSGVPSRFSGSGSGADYSLTVSNLEQEDIATYFCQQANTLPLTFGAGTKLELK
Marked response: 0.000814

Exam item: # query: koff of entry AH02923 humanized anti-human OX40 monoclonal antibody (recombinant human IgG1/kappa) (antibody, V domains shown) VH: QVQLVQSGAEVKKPGASVKVSCKASGYTFTDYSMHWVRQAPGQGLEWMGWISTETGEPTYADDFKGRFTFTLDTSASTAYLELSSLRSEDTAVYYCARVRPWYLAVWGQGTLVTVSS VL: DIQMTQSPSSLSASVGDRVTITCRASQDISNYLNWYQQKPGKAVKLLIYYTSRLYSGVPSRFSGSGSGTDYTFTISSLQPEDIATYYCQQANTLPLTFGGGTKLEIK
Marked response: 0.000616

Exam item: # query: koff of entry AH02925 humanized anti-human OX40 monoclonal antibody (recombinant human IgG1/kappa) (antibody, V domains shown) VH: QVQLVQSGAEVKKPGASVKVSCKASGYTFTDYSMHWVKQAPGQGLEWMGWISTETGEPTYADDFKGRVTITRDTSASTAYLEISSLRSEDTAVYFCARVRPWYLAVWGQGTLVTVSS VL: DIQMTQSPSSLSASVGDRVTITCRASQDISNYLNWYQQKPGKAVKLLIYYTSRLYSGVPSRFSGSGSGTDFTLTISSLQPEDIATYYCQQANTLPLTFGGGTKLEIK
Marked response: 0.00115

Exam item: # query: koff of entry AH02922 humanized anti-human OX40 monoclonal antibody (recombinant human IgG1/kappa) (antibody, V domains shown) VH: QVQLVQSGAEVKKPGASVKISCKASGYTFTDYSMHWVRQAPGQRLEWMGWISTETGEPTYADDFKGRVTITRDTSASTAYMELSSLRSEDTAVYYCARVRPWYLVVWGQGTLVTVSS VL: DIQMTQSPSSLSASVGDRVTITCRASQDISNYLNWYQQKPGKAPKLLIYYTSRLYSGVPSRFSGSGSGTDYTLTISSLQPEDIATYYCQQANTLPLTFGGGTKLEIK
Marked response: 0.00029

Others:
Exam item: # query: koff of entry AH02916 humanized anti-human OX40 monoclonal antibody (recombinant human IgG1/kappa) (antibody, V domains shown) VH: QVQLVQSGAEVKKPGASVKVSCKASGYTFTDYSMHWVKQAPGQGLEWMGWISTETGEPTYADDFKGRVTITLDTSASTAYMELSSLRSEDTAVYYCARVRPWYLAVWGQGTLVTVSS VL: DIQMTQSPSSLSASVGDRVTITCRASQDISNYLNWYQQKPGKAVKLLIYYTSRLYSGVPSRFSGSGSGTDYTFTISSLQPEDIATYFCQQANTLPLTFGGGTKLEIK
Marked response: 0.000659

Exam item: # query: koff of entry AH02906 humanized anti-human OX40 monoclonal antibody (recombinant human IgG1/kappa) (antibody, V domains shown) VH: QVQLVQSGAEVKKPGASVKVSCKASGYTFTDYSMHWVKQAPGQGLEWMGWISTETGEPTYADDFKGRFTITLDTSASTAYMELSSLRSEDTAVYYCARVRPWYLAVWGQGTLVTVSS VL: DIQMTQSPSSLSASVGDRVTITCRASQDISNYLNWYQQKPGKAPKLLIYYTSRLYSGVPSRFSGSGSGTDYTLTISSLQPEDIATYFCQQANTLPLTFGGGTKLEIK
Marked response: 0.00116

Exam item: # query: koff of entry AH02913 humanized anti-human OX40 monoclonal antibody (recombinant human IgG1/kappa) (antibody, V domains shown) VH: QVQLVQSGPEVKKPGASVKVSCKASGYTFTDYSMHWVKQAPGQGLEWMGWISTETGEPTYADDFKGRVTITLDTSASTAYMELSSLRSEDTAVYFCARVRPWYLAVWGQGTLVTVSS VL: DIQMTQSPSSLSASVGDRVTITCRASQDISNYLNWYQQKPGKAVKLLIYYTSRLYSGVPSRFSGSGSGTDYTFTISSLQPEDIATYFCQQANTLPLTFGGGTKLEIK
Marked response: 0.00067

Exam item: # query: koff of entry AH02919 humanized anti-human OX40 monoclonal antibody (recombinant human IgG1/kappa) (antibody, V domains shown) VH: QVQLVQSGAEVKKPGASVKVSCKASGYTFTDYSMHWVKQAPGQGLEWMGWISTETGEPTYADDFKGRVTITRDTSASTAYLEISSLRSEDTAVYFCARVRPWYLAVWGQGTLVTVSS VL: DIQMTQSPSSLSASVGDRVTITCRASQDISNYLNWYQQKPGKAVKLLIYYTSRLYSGVPSRFSGSGSGTDYTLTISSLQPEDIATYYCQQANTLPLTFGGGTKLEIK
Marked response: 0.000776

Exam item: # query: koff of entry AH02921 humanized anti-human OX40 monoclonal antibody (recombinant human IgG1/kappa) (antibody, V domains shown) VH: QVQLVQSGPEVKKPGASVKVSCKASGYTFTDYSMHWVRQAPGQGLEWMGWISTETGEPTYADDFKGRFTITLDTSASTAYLEISSLRSEDTAVYFCARVRPWYLTVWGQGTLVTVSS VL: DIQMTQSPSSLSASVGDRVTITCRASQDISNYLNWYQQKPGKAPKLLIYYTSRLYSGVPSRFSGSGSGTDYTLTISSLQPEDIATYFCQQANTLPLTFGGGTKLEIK
Marked response: 0.000439

Exam item: # query: koff of entry AH02917 humanized anti-human OX40 monoclonal antibody (recombinant human IgG1/kappa) (antibody, V domains shown) VH: QVQLVQSGAEVKKPGASVKVSCKASGYTFTDYSMHWVKQAPGQGLEWMGWISTETGEPTYADDFKGRFTITLDTSASTAYMELSSLRSEDTAVYFCARVRPWYLAVWGQGTLVTVSS VL: DIQMTQSPSSLSASVGDRVTITCRASQDISNYLNWYQQKPGKAVKLLIYYTSRLYSGVPSRFSGSGSGTDFTLTISSLQPEDIATYYCQQANTLPLTFGGGTKLEIK
Marked response: 0.00106

Exam item: # query: koff of entry AH02915 humanized anti-human OX40 monoclonal antibody (recombinant human IgG1/kappa) (antibody, V domains shown) VH: QVQLVQSGAEVKKPGASVKVSCKASGYTFTDYSMHWVKQAPGQGLEWMGWISTETGEPTYADDFKGRVTITLDTSASTAYLEISSLRSEDTAVYYCARVRPWYLAVWGQGTLVTVSS VL: DIQMTQSPSSLSASVGDRVTITCRASQDISNYLNWYQQKPGKAPKLLIYYTSRLYSGVPSRFSGSGSGTDFTLTISSLQPEDIATYFCQQANTLPLTFGGGTKLEIK
Marked response: 0.00142

This collection of values is drawn from patent US20220119540A1.
